Kindly state absorbance at 405 nm for each of the entries shown.
# Tested on: gum arabic
# Experiment Description: VHH binding to gum arabic in ELISA
# Design: species or system acacia tree
# Measurement Setup: [VHH] 0.75 μg/ml (50 nM); gum arabic 100 μg/ml

# absorbance at 405 nm lookup, item VHH 5D4 (VHH, Hexahistidine-tagged) VHH: QVQLQESGGGLVQPGGSLRLSCAASGFDMRRFGIGWFRQVAGKEREGVSCSNVHDGTTYYTNDVKGRFTIVRDNTKNMLYLQMNKLRPEDTAVYSCATTDCEATAWGTYRGYFGQGTQVTVSS
0.840

Given the entry VHH5F5: plant-binding VHH, listed among SEQ ID NO:1-42 (protein, listed as Lama glama, 5F5) VHH: QVQLQESGGGLVQPGGSLRLSCAASGFPLGLYGIGWFRQAPGKEREAVSCDSVDDGSTNYLDSVKGRFTISRDNAKNMVYLQMNSLKPEDTAVYYCATTDCDAKAWGTWTNYRGQGTQVTVSS , report its measured absorbance at 405 nm.
0.476

Item VHH7A2: plant-binding VHH, listed among SEQ ID NO:1-42 (protein, listed as Lama glama, 7A2) VHH: QVQLQESGGGSVHPGGSLTLSCLASGFSLSNYGMGWFRQAPGKEREAVSCTSVPNGHIYYAESVKGRFTIVRDNAGNSVYLQMNSLKPEDAANYFCATTDCEAAHWGTWVNYYGQGTQVTVSS has what recorded absorbance at 405 nm?
0.677

Origin of the recorded values: patent US20130217572A1
